Where these numbers come from: patent EP4813381A1

assay: Conversion rate of salt-form prodrugs to parent compound in mouse plasma
Format: in vitro ADME
assayConditions: conversion to Compound 1, mouse plasma, 37 °C, 8 h
assayMetric: Release rate
Write the numeric value and follow it with the unit.

Use these answered entries as a reference point.
> print(dat)
                                   molecule   assaymetric  reportedresult
1  C[C@@]12CC[C@@H]3[C@H](OC(=O)[C@H]3CN3CCC4(CCCC4)CC3)[C@@H]3[C@]1(CC[C@@]3(C)O)C2 [compound 34]  Release rate           47.6%
2  CC(C)N(C[C@@H]1C(=O)O[C@H]2[C@H]1CC[C@@]1(C)C[C@]13CC[C@@](C)(O)[C@H]23)C(C)C [compound 31]  Release rate           40.2%
3  C[C@@]12CC[C@@H]3[C@H](OC(=O)[C@H]3CN3CCC4(CC3)CC4)[C@@H]3[C@]1(CC[C@@]3(C)O)C2 [compound 37]  Release rate           48.1%
4  CCCN(CCC)C[C@@H]1C(=O)O[C@H]2[C@H]1CC[C@@]1(C)C[C@]13CC[C@@](C)(O)[C@H]23 [compound 29]  Release rate           40.2%
5  C[C@@]12CC[C@@H]3[C@H](OC(=O)[C@H]3CN3CCCCCCC3)[C@@H]3[C@]1(CC[C@@]3(C)O)C2 [compound 38]  Release rate           41.4%
6  CN(C)C[C@@H]1C(=O)O[C@H]2[C@H]1CC[C@@]1(C)C[C@]13CC[C@@](C)(O)[C@H]23 [compound 41]  Release rate           46.1%

Requested field: Release rate. Item: CN(C)C[C@@H]1C(=O)O[C@H]2[C@H]1CC[C@@]1(C)C[C@]13CC[C@@](C)(O)[C@H]23 [compound 42]
41.0%

How about this molecule: CCOC(=O)[C@@H]1CCCN1C[C@@H]1C(=O)O[C@H]2[C@H]1CC[C@@]1(C)C[C@]13CC[C@@](C)(O)[C@H]23 [compound 23]
45.1%

How about this molecule: CCCCN(CCCC)C[C@@H]1C(=O)O[C@H]2[C@H]1CC[C@@]1(C)C[C@]13CC[C@@](C)(O)[C@H]23 [compound 30]
40.8%

* * *

Here the recorded Release rate is given for each entry.
assay: Conversion rate of salt-form prodrugs to parent compound in HEPES buffer solution
Assay type: physicochemical
assayConditions: conversion to Compound 1, HEPES buffer pH 7.4, 37 °C, 2 h
Description: Adjust the pH to 7.4 using 0.5 M NaOH, then dilute to a final volume 100 mL with distilled water. Sample Analysis: Dissolve 0.6 mg of the compound in 250 µl of deionized water separately. Add 250 µl of mouse serum or HEPES 7.4 solution to the sample, incubate at a constant temperature of 37 °C, and collect samples at different time points. Pipette 20 µl of the sample to an EP tube, add 60 µl of methanol, vortex to mix thoroughly, and centrifuge at 12,000 rpm at 4 °C for 10 min. […]
Write the number in % without appending the unit.

Use these answered entries as a reference point.
> print(dat)
                                   molecule  reportedresult
1  C[C@@]12CC[C@@H]3[C@H](OC(=O)[C@H]3CN3CCNCC3)[C@@H]3[C@]1(CC[C@@]3(C)O)C2 [compound 26]            16.1
2  CN(C)C[C@@H]1C(=O)O[C@H]2[C@H]1CC[C@@]1(C)C[C@]13CC[C@@](C)(O)[C@H]23 [compound 21]            10.2
3  C[C@@]12CC[C@@H]3[C@H](OC(=O)[C@H]3CN3CCC(N4CCOCC4)CC3)[C@@H]3[C@]1(CC[C@@]3(C)O)C2 [compound 36]            14.8
4  CCCN(CCC)C[C@@H]1C(=O)O[C@H]2[C@H]1CC[C@@]1(C)C[C@]13CC[C@@](C)(O)[C@H]23 [compound 29]            14.2
5  C[C@@]12CC[C@@H]3[C@H](OC(=O)[C@H]3CN3CCCCCCC3)[C@@H]3[C@]1(CC[C@@]3(C)O)C2 [compound 38]            14.8

Requested field: Release rate. Item: C[C@@]12CC[C@@H]3[C@H](OC(=O)[C@H]3CN3CCC4(CCCC4)CC3)[C@@H]3[C@]1(CC[C@@]3(C)O)C2 [compound 34]
16.2

How about this molecule: CN(C)C[C@@H]1C(=O)O[C@H]2[C@H]1CC[C@@]1(C)C[C@]13CC[C@@](C)(O)[C@H]23 [compound 40]
14.6
